test: Dissociation constant, pKa of the compound; assay type: physicochemical
ENDPOINT LABEL: pKa
Please give only the number in your answer, with no unit.

// field: pKa; key: O=C1NC(=O)C(c2ccccc2)O1 (stereo unspecified) ; value = 5.5
